Biological target: G-protein coupled receptor 84 (Homo sapiens)
Assay: Agonist activity at recombinant human GPR84 expressed in CHO cell membranes co-expressing beta-arrestin2 assessed as inhibition of forskolin-stimulated [3H]cAMP accumulation preincubated for 5 mins followed by forskolin stimulation and measured after 15 mins by radioactive assay
Assay type: functional, cell-based
pEC50: −log10 of the molar value.
property-measured: pEC50

Some solved cases for reference:
{"molecule": "CCCCCCCCCCCCC(=O)O [TRIDECANOATE]", "property-measured": "pEC50", "test-result": 5.02}
{"molecule": "CCCCCCCC(O)CC(=O)O (racemic)", "property-measured": "pEC50", "test-result": 4.50}
{"molecule": "CCCCCCCCCCCC(O)CC(=O)O (racemic)", "property-measured": "pEC50", "test-result": 5.80}

1 = CCCCCCCCCCC[C@@H](O)CC(=O)O
2 = CCCCCCCCCCCCC(O)C(=O)O (racemic)
Of 1 and 2 , which one carries the higher reported pEC50? Lab log: write the label of the selected item as the result. 1
(1: 5.76, 2: 5.41)

###

Target: G-protein coupled receptor 84 (Homo sapiens)
Assay: Displacement of [3H]PSB-1584 from recombinant human GPR84 expressed in CHO cell membranes co-expressing beta-arrestin2 measured after 6 hrs by scintillation counting method
property-measured: IC50 (µM)

{"structure-notation": "Clc1ccc2c(Cc3c[nH]c4cc(Cl)ccc34)c[nH]c2c1", "measured-on": "G-protein coupled receptor 84 (Homo sapiens)", "IC50 / µM": 43.7}

I = CCC(c1c[nH]c2ccccc12)c1c[nH]c2ccccc12
II = Cn1cc(Cc2cn(C)c3ccccc23)c2ccccc21
III = CCCC(c1c[nH]c2ccccc12)c1c[nH]c2ccccc12
Put the entries in order of IC50, starting with the largest number. Labels, ranked as asked. I, III, II

###

Target: G-protein coupled receptor 84 (Homo sapiens)
Assay: Displacement of [3H]PSB-1584 from recombinant human GPR84 expressed in CHO cell membranes co-expressing beta-arrestin2 measured after 6 hrs by scintillation counting method
property-measured: Ki (nM)

{"molecule": "CCc1ccc(CCNc2cc(=O)[nH]c(=O)[nH]2)cc1", "property-measured": "Ki", "display-unit": "nM", "test-result": 0.582}
{"molecule": "O=c1cc(NCCc2ccc(F)cc2)[nH]c(=O)[nH]1", "property-measured": "Ki", "display-unit": "nM", "test-result": 11.4}
{"molecule": "CCC/C=C/CNc1cc(=O)[nH]c(=O)[nH]1", "property-measured": "Ki", "display-unit": "nM", "test-result": 37.4}
{"molecule": "CCCCCCNc1[nH]c(=O)[nH]c(=O)c1Br", "property-measured": "Ki", "display-unit": "nM", "test-result": 225}
{"molecule": "CCCCCNC(=O)c1cc(=O)[nH]c(=O)[nH]1", "property-measured": "Ki", "display-unit": "nM", "test-result": 1560}
{"molecule": "CCCCCCCCCCCC(O)CC(=O)O (racemic)", "property-measured": "Ki", "display-unit": "nM", "test-result": 511}

I = O=c1cc(O)nc(SCCc2ccc(Cl)cc2)[nH]1
II = Oc1cc(NCCCCc2ccccc2)nc(O)n1
Of I and II , which one carries the higher reported Ki? Lab log: write the label of the selected item as the result. I

###

Biological target: G-protein coupled receptor 84 (Homo sapiens, UniProt Q9NQS5)
Sequence (Q9NQS5 whole entry): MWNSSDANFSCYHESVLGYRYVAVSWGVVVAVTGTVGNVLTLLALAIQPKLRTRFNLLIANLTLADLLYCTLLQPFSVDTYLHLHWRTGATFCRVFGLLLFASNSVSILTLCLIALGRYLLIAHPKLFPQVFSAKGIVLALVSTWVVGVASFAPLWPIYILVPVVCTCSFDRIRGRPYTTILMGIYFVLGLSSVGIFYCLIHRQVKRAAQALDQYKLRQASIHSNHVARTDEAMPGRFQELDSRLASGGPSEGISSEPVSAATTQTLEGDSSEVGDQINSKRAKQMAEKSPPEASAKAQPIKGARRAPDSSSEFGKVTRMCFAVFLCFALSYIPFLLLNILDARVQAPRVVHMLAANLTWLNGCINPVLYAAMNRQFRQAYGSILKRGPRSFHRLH
Assay: Displacement of [3H]PSB-1584 from recombinant human GPR84 expressed in CHO cell membranes co-expressing beta-arrestin2 measured after 6 hrs by scintillation counting method
property-measured: Ki (nM)

Some solved cases for reference:
{"compound": "CCCCCCCNc1[nH]c(=O)[nH]c(=O)c1N=O", "property-measured": "Ki", "test-result": 58.6}
{"compound": "CCCCCCNC(=O)c1cc(=O)[nH]c(=O)[nH]1", "property-measured": "Ki", "test-result": 469}
{"compound": "CCCCCCN(C)c1cc(=O)[nH]c(=O)[nH]1", "property-measured": "Ki", "test-result": 6.94}
{"compound": "CCCCCCCCCNc1cc(=O)[nH]c(=O)[nH]1", "property-measured": "Ki", "test-result": 1.12}
{"compound": "O=c1cc(NCCc2cccs2)[nH]c(=O)[nH]1", "property-measured": "Ki", "test-result": 49.4}
{"compound": "O=C(NCCCc1ccccc1)c1cc(=O)[nH]c(=O)[nH]1", "property-measured": "Ki", "test-result": 1590}
{"compound": "CCCCCCSc1nccc(O)n1", "property-measured": "Ki", "test-result": 3470}
{"compound": "CCCCCNc1cc(=O)[nH]c(=O)[nH]1", "property-measured": "Ki", "test-result": 91}

P = O=c1cc(N2CCC(Cc3ccccc3)CC2)[nH]c(=O)[nH]1
Q = O=c1cc(NCCc2cccc(Cl)c2)[nH]c(=O)[nH]1
R = O=c1cc(N2CCN(Cc3cccc4ccccc34)CC2)[nH]c(=O)[nH]1
Put the entries in order of Ki, starting with the largest number. Labels, ranked as asked. R, P, Q

P = CCCCCCCCCCNc1cc(O)nc(O)n1
Q = O=c1cc(NCCc2cccc(F)c2)[nH]c(=O)[nH]1
Of P and Q , which one carries the higher reported Ki? Lab log: write the label of the selected item as the result. Q
(Q: 9.48 nM, P: 0.726 nM)

A = O=c1cc(O)nc(SCCc2ccc(F)cc2)[nH]1
B = Oc1cc(O)nc(SCCCc2ccccc2)n1
C = CC(C)(C)c1ccc(CCNc2cc(=O)[nH]c(=O)[nH]2)cc1
D = CCCCCCSc1nc(O)cc(C(=O)O)n1
E = CCCCCCCCNc1[nH]c(=O)[nH]c(=O)c1Br
Write the entries in order, lowest recorded Ki first. Labels, ranked as asked. B, C, A, E, D

a = CCCCCCCCN(C)c1cc(=O)[nH]c(=O)[nH]1
b = Oc1cc(NCCc2ccccc2)nc(O)n1
Hi! Which is lower in terms of Ki, the first one a or the second one b ? Lab log: write the label of the selected item as the result. a
(a: 3.6 nM, b: 10.8 nM)

###

Target: G-protein coupled receptor 84 (Homo sapiens, UniProt Q9NQS5)
Assay: Positive allosteric modulation of recombinant human GPR84 expressed in CHO cell membranes co-expressing beta-arrestin2 assessed as increase in [3H]PSB-1584 binding measured after 6 hrs by scintillation counting method relative to control
property-measured: %max (%)

{"structure-notation": "Fc1cc2c(Cc3c[nH]c4cc(Cl)c(F)cc34)c[nH]c2cc1Cl", "%max [%]": 36}
{"structure-notation": "Clc1ccc2[nH]cc(Cc3c[nH]c4ccc(Cl)cc34)c2c1", "%max [%]": 90}
{"structure-notation": "Clc1cccc2[nH]cc(Cc3c[nH]c4cccc(Cl)c34)c12", "%max [%]": 94}

I = Brc1ccc2[nH]cc(Cc3c[nH]c4ccc(Br)cc34)c2c1
II = COc1ccc2[nH]cc(Cc3c[nH]c4ccc(OC)cc34)c2c1
Hi! Which is lower in terms of %max, the first one I or the second one II ? Lab log: write the label of the selected item as the result. II
(II: 46%, I: 69%)

###

Target: G-protein coupled receptor 84 (Homo sapiens, UniProt Q9NQS5)
Assay: Displacement of [3H]PSB-1584 from recombinant human GPR84 expressed in CHO cell membranes co-expressing beta-arrestin2 measured after 6 hrs by scintillation counting method
property-measured: Ki (nM)

{"compound": "Cc1ccc(CCNc2cc(=O)[nH]c(=O)[nH]2)cc1", "Ki, nM": 1.25}

a = O=c1cc(O)nc(SCCc2ccc(Br)cc2)[nH]1
b = CCCCCCCCNc1[nH]c(=O)[nH]c(=O)c1N=O
c = O=c1cc(NCCCCCCCO)[nH]c(=O)[nH]1
d = Oc1cc(O)nc(SCCCCc2ccccc2)n1
e = O=c1cc(N2CCN(C3CCc4ccccc43)CC2)[nH]c(=O)[nH]1 (stereo not drawn)
Write the entries in order, lowest recorded Ki first. Labels, ranked as asked. d, a, e, b, c
(d: 0.324 nM, a: 3.17 nM, e: 14.7 nM, b: 37 nM, c: 267 nM)

A = O=c1cc(NCCc2ccccc2Cl)[nH]c(=O)[nH]1
B = O=c1cc(NCCOc2ccccc2)[nH]c(=O)[nH]1
C = CCCCCCSc1nc(C)cc(O)n1
Write the entries in order, lowest recorded Ki first. Labels, ranked as asked. B, A, C
(B: 3.12 nM, A: 36 nM, C: 3630 nM)

###

Target: G-protein coupled receptor 84 (Homo sapiens, UniProt Q9NQS5)
Experiment: Agonist activity at recombinant human GPR84 expressed in CHO cell membranes co-expressing beta-arrestin2 assessed as beta-arrestin 2 recruitment measured after 90 mins by beta-galactosidase based PathHunter assay
pEC50: −log10 of the molar value.
property-measured: pEC50

{"compound": "CCCCCCCCCCCCC(O)C(=O)O (racemic)", "property-measured": "pEC50", "test-result": 5.36}

a = CCCCCCCCCCCCC(=O)O [TRIDECANOATE]
b = CCCCCCCCCC(O)CC(=O)O (racemic)
c = CCCCCCCCCCC[C@@H](O)CC(=O)O
Write the entries in order, lowest recorded pEC50 first. Labels, ranked as asked. b, a, c
(b: 5.49, a: 5.77, c: 6.34)

1 = CCCCCCCCCCCC(=O)O [DODECANOATE]
2 = CCCCCCCCCCCC(O)CC(=O)O (racemic)
Of 1 and 2 , which one carries the higher reported pEC50? Lab log: write the label of the selected item as the result. 2
